# credit: patent US20260053834A1

Reported pIC50 by item:
- measuredTarget: AKT1 WT (Homo sapiens, UniProt P31749)
- Sequence (P31749 whole entry): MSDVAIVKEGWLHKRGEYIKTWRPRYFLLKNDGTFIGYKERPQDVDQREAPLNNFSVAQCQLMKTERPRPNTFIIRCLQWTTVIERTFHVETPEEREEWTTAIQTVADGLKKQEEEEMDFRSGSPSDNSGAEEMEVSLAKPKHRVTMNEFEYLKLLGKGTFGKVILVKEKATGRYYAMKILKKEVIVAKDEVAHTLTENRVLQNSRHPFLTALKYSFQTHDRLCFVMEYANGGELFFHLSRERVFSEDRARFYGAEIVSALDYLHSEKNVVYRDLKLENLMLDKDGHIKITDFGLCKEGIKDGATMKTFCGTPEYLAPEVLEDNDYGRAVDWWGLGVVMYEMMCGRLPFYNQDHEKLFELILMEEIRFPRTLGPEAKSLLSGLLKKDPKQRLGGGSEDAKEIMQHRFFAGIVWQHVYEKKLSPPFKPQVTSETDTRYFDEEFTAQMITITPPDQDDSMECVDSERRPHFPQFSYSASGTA
- methodSummary: Live cell target engagement by NanoBRET competitive probe displacement, AKT1 WT
- measurementSetup: transfected HEK293 cells, 2 h at 37° C., read-out: AKT1 WT IC50: GeoMean IC50
- Method: Determining live cell AKT1 E17K, AKT1 WT, and AKT2 target engagement by NanoBRET competitive probe displacement. Live cell target engagement assays were performed as described (Vasta, J. D. et al. Cell Chem Biol 2018, 25(11), 206-214). […] After incubation for 2 h at 37° C., luciferase substrate and extracellular luciferase inhibitor were added to all wells, and luminescent intensity at 460 nm and 600 nm were measured on a multimode plate-reader. […]
pIC50: −log10 of the molar value.

| molecule | assayReadout | result |
| --- | --- | --- |
| [2H]C(=O)c1cc(C(=O)N[C@H]2CCc3cc(-n4c(-c5cccnc5N)nc5c(C)cc(-n6cccn6)nc54)ccc32)ccc1O | pIC50 | 7.00 to 8.00 |
| Nc1ncccc1-c1nc2ccc(-c3cccnn3)nc2n1-c1ccc2c(c1)CC[C@@H]2NC(=O)c1ccc(O)c(C=O)c1 | pIC50 | 7.00 to 8.00 |
| Nc1ncccc1-c1nc2ccc(-n3ncc4cccnc43)nc2n1-c1ccc2c(c1)CC[C@@H]2NC(=O)c1cc(C=O)c(O)c(F)c1F | pIC50 | 7.00 to 8.00 |
| N#Cc1cc(O)c(C=O)cc1C(=O)N[C@H]1CCc2cc(-n3c(-c4cccnc4N)nc4ccc(-n5cccn5)nc43)ccc21 | pIC50 | ≤ 5.70 |
| Nc1ncccc1-c1nc2ccc(N3CCOCC3)nc2n1-c1ccc2c(c1)CC[C@@H]2NC(=O)c1ccc(O)c(C=O)c1 | pIC50 | 5.70 to 7.00 |

Quick check: pIC50 of CC1(NC(=O)c2ccc(O)c(C=O)c2)CCc2cc(-n3c(-c4cccnc4N)nc4ccc(-n5cccn5)nc43)ccc21 (stereo not drawn) ?
5.70 to 7.00

====

- measuredTarget: AKT1 E17K (Homo sapiens, UniProt P31749, E17K)
- Sequence (P31749 whole entry E17K): as the sequence (P31749 whole entry) above, with E17K counted along it
- methodSummary: Live cell target engagement by NanoBRET competitive probe displacement, AKT1 E17K
- measurementSetup: transfected HEK293 cells, 2 h at 37° C., read-out: AKT1 E17K IC50: GeoMean IC50
assayReadout: IC50

| compoundString | IC50 |
| --- | --- |
| Nc1ncccc1-c1nc2ccc(-n3cccn3)nc2n1-c1ccc2c(c1)CC[C@@H]2NC(=O)c1ccc(O)c(C=O)c1F | 10 to 100 nM |

Recorded IC50 for Nc1ncccc1-c1nc2c(-n3cn[nH]c3=O)cc(-n3cccn3)nc2n1-c1ccc2c(c1)CC[C@@H]2NC(=O)c1ccc(O)c(C=O)c1 , please?
100 to 2000 nM

Check [2H]C(=O)c1cc(C(=O)N[C@H]2CCc3cc(-n4c(-c5cccnc5N)nc5ccc(-n6ccc(F)n6)nc54)ccc32)ccc1O too.
10 to 100 nM

Follow-up entry: Nc1ncccc1-c1nc2ccc(-n3cc4c(n3)CNC4)nc2n1-c1ccc2c(c1)CC[C@@H]2NC(=O)c1ccc(O)c(C=O)c1
100 to 2000 nM

Record: Nc1ncc(F)cc1-c1nc2ccc(-n3cccn3)nc2n1-c1ccc2c(c1)CC[C@@H]2NC(=O)c1ccc(O)c(C=O)c1
10 to 100 nM

Let us now turn to Cc1ccc2nc(-c3cccnc3N)n(-c3ccc4c(c3)CC[C@@H]4NC(=O)c3cc(F)c(O)c(C=O)c3)c2n1
100 to 2000 nM

====

- measuredTarget: AKT1 E17K (Homo sapiens, UniProt P31749, E17K)
- Construct: expressed in transfected cells; host or cells: HEK293
- methodSummary: Live cell target engagement by NanoBRET competitive probe displacement, AKT1 E17K
- Format: binding
- measurementSetup: transfected HEK293 cells, 2 h at 37° C., read-out: AKT1 E17K IC50: GeoMean IC50
pIC50: −log10 of the molar value.
assayReadout: pIC50

Solved entries:
| molecule | pIC50 |
| --- | --- |
| Cc1cc(-n2ccc(F)n2)nc2c1nc(-c1cccnc1N)n2-c1ccc2c(c1)CC[C@@H]2NC(=O)c1ccc(O)c(C=O)c1 [Example 181] | 7.00 to 8.00 |
| Nc1ncccc1-c1nc2ccc(-n3cccn3)nc2n1-c1ccc2c(c1)CC(F)[C@@H]2NC(=O)c1cc(C=O)c(O)cc1F (single isomer, unassigned) [Example 258] | > 8.00 |

Can you look up the measured pIC50 of CN(C)Cc1cc(C(=O)N[C@H]2CCc3cc(-n4c(-c5cccnc5N)nc5ccc(-n6cccn6)nc54)ccc32)cc(C=O)c1O [Example 192] for me?
5.70 to 7.00

Also need Nc1ncccc1-c1nc2ccc(-n3cccn3)nc2n1-c1ccc2c(c1)CC[C@@H]2n1c(=O)[nH]c2cc(O)c(C=O)cc2c1=O [Example 238] , thanks.
5.70 to 7.00

What about this molecule? Nc1ncccc1-c1nc2ccc(C3CC3)nc2n1-c1ccc2c(c1)CC[C@@H]2NC(=O)c1ccc(O)c(C=O)c1 [Example 49]
5.70 to 7.00

Try this molecule next: Nc1ncccc1-c1nc2ccc(-c3ccccc3)nc2n1-c1ccc2c(c1)CC[C@@H]2NC(=O)c1cc(F)c(O)c(C=O)c1 [Example 8]
7.00 to 8.00

Another molecule: Nc1ncccc1-c1nc2ccc(-c3ccn(C(F)F)n3)nc2n1-c1ccc2c(c1)CC[C@@H]2NC(=O)c1cc(C=O)c(O)c(F)c1F [Example 157]
> 8.00

====

- measuredTarget: AKT1 WT (Homo sapiens)
- methodSummary: Live cell target engagement by NanoBRET competitive probe displacement, AKT1 WT
- measurementSetup: transfected HEK293 cells, 2 h at 37° C., read-out: AKT1 WT IC50: GeoMean IC50
assayReadout: IC50

See these solved cases before continuing.
| compound | IC50 |
| --- | --- |
| Nc1ncccc1-c1nc2ccc(-c3nccs3)nc2n1-c1ccc2c(c1)CC[C@@H]2NC(=O)c1ccc(O)c(C=O)c1 | 10 to 100 nM |
| Nc1ncccc1-c1nc2ccc(-c3cnccn3)nc2n1-c1ccc2c(c1)CC[C@@H]2NC(=O)c1cc(F)c(O)c(C=O)c1 | 10 to 100 nM |
| Nc1ncccc1-c1nc2cc(O)c(-n3cccn3)nc2n1-c1ccc2c(c1)CC[C@@H]2NC(=O)c1cc(C=O)c(O)cc1F | 10 to 100 nM |
| Cc1cc(-n2cccn2)nc2c1nc(-c1cccnc1N)n2-c1ccc2c(c1)CC[C@@H]2NC(=O)c1cc(C=O)c(O)cc1F | 10 to 100 nM |
| Nc1ncccc1-c1nc2ccc(-c3cscn3)nc2n1-c1ccc2c(c1)CC[C@@H]2NC(=O)c1ccc(O)c(C=O)c1 | 10 to 100 nM |

# IC50 lookup, item Nc1ncccc1-c1nc2ccc(-c3ccccc3)nc2n1-c1ccc2c(c1)CCC2C(=O)NCc1ccc(C=O)c(O)c1 (stereo not shown)
10 to 100 nM

====

Reported IC50 values follow for various molecules
- measuredTarget: AKT1 E17K (Homo sapiens, UniProt P31749, E17K)
- methodSummary: Live cell target engagement by NanoBRET competitive probe displacement, AKT1 E17K
- measurementSetup: transfected HEK293 cells, 2 h at 37° C., read-out: AKT1 E17K IC50: GeoMean IC50

Past entries and their recorded results:
| molecule | IC50 |
| --- | --- |
| Nc1ncccc1-c1nc2ccc(-c3ccccc3)nc2n1-c1ccc2c(c1)CCC2NC(=O)Cc1ccc(C=O)c(O)c1 (stereo not shown) | 10 to 100 nM |
| Cc1ccn(-c2ccc3nc(-c4cccnc4N)n(-c4ccc5c(c4)CC[C@@H]5NC(=O)c4ccc(O)c(C=O)c4)c3n2)n1 | 10 to 100 nM |
| Nc1ncccc1-c1nc2ccc(-c3cc4n(n3)CCOC4)nc2n1-c1ccc2c(c1)CC[C@@H]2NC(=O)c1cc(C=O)c(O)cc1F | 10 to 100 nM |
| Nc1ncccc1-c1nc2ccc(-n3cccn3)nc2n1-c1ccc2c(c1)CC[C@@H]2NC(=O)c1cc(C=O)c(O)cc1F | 10 to 100 nM |
| Nc1ncccc1-c1nc2c(C(F)F)cc(-n3cccn3)nc2n1-c1ccc2c(c1)CC[C@@H]2NC(=O)c1ccc(O)c(C=O)c1 | < 10 nM |
| Nc1ncccc1-c1nc2ccc(-c3ccccc3)nc2n1-c1ccc2c(c1)CC[C@@H]2NC(=O)c1ccc(O)c(C=O)n1 | 100 to 2000 nM |
| COc1cnc(-c2ccc3nc(-c4cccnc4N)n(-c4ccc5c(c4)CC[C@@H]5NC(=O)c4ccc(O)c(C=O)c4)c3n2)cn1 | 10 to 100 nM |
| Nc1ncccc1-c1nc2ccc(Cl)nc2n1-c1ccc2c(c1)CC[C@@H]2NC(=O)c1ccc(O)c(C=O)c1 | 10 to 100 nM |
| Cc1cc(-c2nccs2)nc2c1nc(-c1cccnc1N)n2-c1ccc2c(c1)CC[C@@H]2NC(=O)c1ccc(O)c(C=O)c1 | 10 to 100 nM |
| Nc1ncccc1-c1nc2ccc(-n3cccn3)nc2n1-c1ccc2c(c1)CC[C@@H]2NCc1cc(C=O)c(O)cc1F | 10 to 100 nM |

// returns reported IC50 for input Nc1ncccc1-c1nc2ccc(-n3ccc(N4CCC4)n3)nc2n1-c1ccc2c(c1)CC[C@@H]2NC(=O)c1ccc(O)c(C=O)c1
10 to 100 nM

// next record Nc1ncccc1-c1nc2ccc(-c3ccn(C4COC4)n3)nc2n1-c1ccc2c(c1)CC[C@@H]2NC(=O)c1ccc(O)c(C=O)c1
10 to 100 nM

Can you check Nc1ncccc1-c1nc2ccc(-n3cccn3)nc2n1-c1ccc2c(c1)CC(F)[C@@H]2NC(=O)c1ccc(O)c(C=O)c1 (single isomer, unassigned) [Example 257] next?
10 to 100 nM
